target: Prostaglandin D2 receptor 2 (Homo sapiens, UniProt Q9Y5Y4); experiment: Antagonist activity at CRTh2 receptor in human isolated eosinophil assessed as inhibition of DK-PGD2-induced shape change after 5 mins by flow cytometry
Sequence (Q9Y5Y4 whole entry): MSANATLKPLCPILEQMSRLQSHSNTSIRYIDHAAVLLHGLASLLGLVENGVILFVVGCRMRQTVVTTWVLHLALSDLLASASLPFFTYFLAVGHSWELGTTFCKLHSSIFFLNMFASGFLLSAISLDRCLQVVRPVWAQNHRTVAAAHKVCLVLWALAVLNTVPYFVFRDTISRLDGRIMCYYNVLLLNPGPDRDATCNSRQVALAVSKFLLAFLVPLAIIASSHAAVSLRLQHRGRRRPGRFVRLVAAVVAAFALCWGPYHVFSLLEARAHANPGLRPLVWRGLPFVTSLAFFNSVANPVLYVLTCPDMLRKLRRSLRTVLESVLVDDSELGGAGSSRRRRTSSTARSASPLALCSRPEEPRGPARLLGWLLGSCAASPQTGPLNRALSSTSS
MEASURED ATTRIBUTE: pIC50
One number for each entry, as −log10 of the molar value.

Entry under test: Cc1c(CC(=O)O)c2cccnc2n1Cc1ccc([N+](=O)[O-])cc1 . Its pIC50 was 7.62
